- subject_of_test: T1, human IGF2^1-67 (mature insulin-like growth factor 2) (human, UniProt P01344 25-91, biotinylated (site not stated) where immobilised on the chip (Tables 1-4))
- T1 construct: mature; also called mature IGF2; biotinylated IGF2
- assay_protocol: SPR kinetic, biotin-IGF2 on chip, pH 7.4
Would you kindly list koff for each of these binders?

Use these answered entries as a reference point.
Ask | Fill blank: measured koff of the binder domain 11^AB5 Q1569R P1597H G1603K (receptor, See m5) MKSNEHDDCQVTNPSTGHLFDLSSLSGRAGFTAAYAKGWGVYMSICGENENCPPGVGACFGRTRISVGKANKRLRYVDQVLQLVYKDGSHCPSKSKLSYKSVISFVCRPEAGPTNRPMLISLDKQTCTLFFSWHTPLACEQATECSV is ____.
Reply | 0.0058 s⁻¹

Ask | May I ask what koff has been recorded for domain 11^AB3 P1597H K1631W (receptor, See m5) MKSNEHDDCQVTNPSTGHLFDLSSLSGRAGFTAAYSKSGVVYMSICGENENCPPGVGACFGQTRISVGKANKRLRYVDQVLQLVYKDGSHCPSKSGLSYKSVISFVCRPEAGPTNRPMLISLDWQTCTLFFSWHTPLACEQATECSV ?
Reply | 0.348 s⁻¹

// next entry
Ask | What value of koff has been recorded for this entry: domain 11^AB5 P1597L (receptor, See m5) MKSNEHDDCQVTNPSTGHLFDLSSLSGRAGFTAAYAKGWGVYMSICGENENCPPGVGACFGQTRISVGKANKRLRYVDQVLQLVYKDGSLCPSKSGLSYKSVISFVCRPEAGPTNRPMLISLDKQTCTLFFSWHTPLACEQATECSV
Reply | 0.015 s⁻¹
